These data points were gathered from patent US9591852B2.

Documented log RLU compound across a set of compounds
system: 48-hour salivary biofilm; experiment: Biofilm disruption screening assay: 48-hour salivary biofilm on polystyrene peg plate, ATP bioluminescence of bacteria remaining; format: cell-based; conditions: unsaturated long chain aldehyde 0.05% (w/v) in water/ethanol/Pluronic F-127; treated twenty minutes; N=8
Numbers only here, please. The scale is log RLU.

# Compound, Units, log RLU compound
records = [
    ("CC(C)=CCCC(C)C=O (stereo not drawn) [2,6-dimethyl-5-hepten-1-al]", "log RLU", 5.07),
    ("CCCCCCCCC/C=C/C=O [trans-2-dodecenal]", "log RLU", 4.58),
]

Provide one value: measured log RLU compound of CC/C=C\CCC=O [cis-4-hepten-1-al] 5.14

For the compound CCCCCC/C=C/C=O [trans-2-nonenal] , give its measured log RLU compound value. 4.66

Give log RLU compound for the following compound: CCC/C=C/C=O [trans-2-hexenal] 5.39
